molecular target: HLA-B*4002 (human); assay: competition with radiolabeled probe peptide, purified HLA; conditions: remark: other sources report otherwise
MEASURE_NAME: IC50 (nM)

{"BINDER": "GERLPQPPICTI […]", "MEASURE_NAME": "IC50", "VALUE_MEASURED": 9.5}
